Values compiled from patent US3931199A.

Test system: Passive Cutaneous Anaphylaxis
measurement.notes: Passive Cutaneous Anaphylaxis Test
Type: in vivo, Donryu-strain male rats
details: Rattus norvegicus, ip, 0.5 h; i.p., 30 minutes before challenge; dose required for 50% inhibition; rats sensitized with reagin serum, egg albumin challenge after 48 hours; read-out: ED50 i.p.
Known ED50 of a selection of compounds

• O=C(O)c1ccc2oc3ncccc3c(=O)c2c1 = 2 mg/kg

What ED50 value was documented for this compound, "CC(=O)c1ccc2oc3ncccc3c(=O)c2c1" ?
1 mg/kg

Then what about the compound "CC(C)C(=O)c1ccc2oc3ncccc3c(=O)c2c1" ?
1 mg/kg

Then what about the compound "O=C([O-])c1ccc2oc3nc(-c4ccccc4)ccc3c(=O)c2c1.[Na+]" ?
1 mg/kg
